molecular target: DNA polymerase alpha catalytic subunit (Homo sapiens, UniProt P09884); assay: Effective concentration against DNA polymerase alpha
Sequence (P09884 whole entry): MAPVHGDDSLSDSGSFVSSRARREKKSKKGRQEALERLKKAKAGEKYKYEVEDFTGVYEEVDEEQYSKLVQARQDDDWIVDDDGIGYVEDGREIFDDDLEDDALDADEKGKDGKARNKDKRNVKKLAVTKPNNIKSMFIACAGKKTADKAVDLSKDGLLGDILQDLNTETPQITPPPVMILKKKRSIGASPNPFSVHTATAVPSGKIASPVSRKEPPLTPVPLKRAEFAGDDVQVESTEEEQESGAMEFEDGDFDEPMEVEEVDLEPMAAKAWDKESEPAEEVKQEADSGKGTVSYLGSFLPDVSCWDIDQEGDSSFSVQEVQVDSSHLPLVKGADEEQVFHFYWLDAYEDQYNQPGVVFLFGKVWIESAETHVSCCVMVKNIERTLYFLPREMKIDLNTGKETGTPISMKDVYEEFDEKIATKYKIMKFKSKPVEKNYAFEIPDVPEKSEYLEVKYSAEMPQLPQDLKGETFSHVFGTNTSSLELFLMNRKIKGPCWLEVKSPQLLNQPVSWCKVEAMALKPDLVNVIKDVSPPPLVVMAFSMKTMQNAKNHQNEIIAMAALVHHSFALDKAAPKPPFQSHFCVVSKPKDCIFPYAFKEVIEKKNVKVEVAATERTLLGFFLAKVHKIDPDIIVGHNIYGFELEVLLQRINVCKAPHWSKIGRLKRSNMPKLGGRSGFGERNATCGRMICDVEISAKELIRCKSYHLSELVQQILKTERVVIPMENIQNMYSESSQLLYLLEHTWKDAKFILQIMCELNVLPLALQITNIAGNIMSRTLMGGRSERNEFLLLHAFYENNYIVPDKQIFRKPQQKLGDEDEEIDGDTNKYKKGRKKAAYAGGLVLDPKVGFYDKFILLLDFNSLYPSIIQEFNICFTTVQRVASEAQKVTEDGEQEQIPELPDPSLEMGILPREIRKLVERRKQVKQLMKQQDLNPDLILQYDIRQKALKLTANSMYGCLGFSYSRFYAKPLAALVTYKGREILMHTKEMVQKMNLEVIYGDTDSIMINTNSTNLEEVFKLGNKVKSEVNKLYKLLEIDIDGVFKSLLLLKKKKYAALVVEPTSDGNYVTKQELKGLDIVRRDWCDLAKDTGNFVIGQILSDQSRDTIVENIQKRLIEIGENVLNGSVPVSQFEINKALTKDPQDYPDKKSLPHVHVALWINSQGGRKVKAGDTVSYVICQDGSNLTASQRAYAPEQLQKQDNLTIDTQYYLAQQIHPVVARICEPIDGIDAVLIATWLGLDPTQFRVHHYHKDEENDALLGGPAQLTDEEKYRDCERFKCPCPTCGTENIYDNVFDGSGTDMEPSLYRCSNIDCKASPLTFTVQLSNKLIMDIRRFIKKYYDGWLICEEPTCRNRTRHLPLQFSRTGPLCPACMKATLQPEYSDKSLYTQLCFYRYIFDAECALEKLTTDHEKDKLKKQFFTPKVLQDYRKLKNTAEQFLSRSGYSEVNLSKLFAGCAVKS
Provide the recorded EC50 for the entries that follow.
Could you give me the number in µM? Just the number is fine.

stdin: So what does the record say about EC50 for COc1ccc2c(c1)[C@@]1(C)CCC[C@@](C)(N)[C@@H]1CC2 ?
stdout: 1

stdin: So what does the record say about EC50 for C[C@@]1(CO)[C@H](O)CC[C@]2(C)c3cc(O)c(CO)cc3CC[C@@H]12 ?
stdout: 4

stdin: Field request: EC50 | item: C[C@@]1(CO)[C@H](O)CC[C@]2(C)c3cc(O)ccc3CC[C@@H]12
stdout: 8

stdin: Item under review: C[C@@]1(C(=O)O)CCC[C@]2(C)c3cc(O)c(C=O)cc3CC[C@@H]12 . Reported EC50?
stdout: 5

stdin: May I ask what EC50 has been recorded for C[C@@]1(CO)[C@@H](O)CC[C@]2(C)c3cc(O)c(CO)cc3CC[C@@H]12 ?
stdout: 7
